Listing of recorded fold fluorescence by entry.
- measurement.notes: chitosan synthesis blockers in C. neoformans – flow cytometry, Cibacron Brilliant Red staining (AID 1347148);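 also: compound exposure lasted three days at 37 degrees C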
- test.settings: Cryptococcus neoformans chitosan, hits give low values; at 10 µM unless noted
Activity calls are given as the source filed them. No rule for the calls is given here. Square brackets hold non-standard residues; d marks the D form. Peptide text beside a SMILES is read from it. Phe(ol) = N[C@H](CO)Cc1ccccc1; Aib = CC(C)(N)C(=O)O

Reference set (4 entries):
compound	result
CC(C)=CCC(O)C1=CC(=O)c2c(O)ccc(O)c2C1=O (stereo not drawn)	6.4 [at 173.4 µM] (inactive)
CC(=O)NC(C)(C)C(=O)N1CCC[C@H]1C(=O)NC(C)(C)C(=O)N[C@@H](C)C(=O)NC(C)(C)C(=O)N[C@@H](C)C(=O)N[C@@H](CCC(N)=O)C(=O)NC(C)(C)C(=O)N[C@H](C(=O)NC(C)(C)C(=O)NCC(=O)N[C@@H](CC(C)C)C(=O)NC(C)(C)C(=O)N1CCC[C@H]1C(=O)N[C@H](C(=O)NC(C)(C)C(=O)NC(C)(C)C(=O)N[C@@H](CCC(=O)O)C(=O)N[C@@H](CCC(N)=O)C(=O)N[C@H](CO)Cc1ccccc1)C(C)C)C(C)C (Ac-[Aib]P[Aib]A[Aib]AQ[Aib]V[Aib]GL[Aib]PV[Aib][Aib]EQ[Phe(ol)])	7.73 [at 25.5 µM] (inactive)
CCCCCCCCCCCCCCC[C@H](O)[C@@H](CO)NC(=O)CCCCCCC	6.03 (inactive)
CCCCCCCCCCCCCC[C@H](F)C(=O)O	6.01 (inactive)

So what does the record say about fold fluorescence for CCCCCCCCCCCCCCCCOC[C@H](CO)OC(C)=O ?
4.43 (inactive)

So what does the record say about fold fluorescence for CCCCC/C=C\CC(O)/C=C/c1cccc(CC(O)CCCCO)n1 (stereo not drawn) ?
3.69 [at 1 µM] (inactive)

So what does the record say about fold fluorescence for CCCCC/C=C\C\C=C/C=C/C=C/[C@@H](SC[C@H](N)C(=O)O)[C@@H](O)CCCC(=O)O ?
3.87 [at 1 µM] (inactive)

So what does the record say about fold fluorescence for C1CCC[C@H]2CCCN3CC[C@@H](CCCCCC[C@@H]4CCCN5CC[C@@H](CC1)O[C@@H]45)O[C@@H]23 ?
6.06 [at 11.2 µM] (inactive)
